B1: Hairpin Ribozyme (parent)
chain: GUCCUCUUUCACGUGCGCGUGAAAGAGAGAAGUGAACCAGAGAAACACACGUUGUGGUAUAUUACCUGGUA

Variants of: B1
Assay: self-cleavage, relative activity (ratio to wild type); higher = more cleavage; co-transcriptional
Kind request: treat 0.2 as inclusive, so self-cleavage at 0.2 or higher is Met, anything lower is Not met.

Query: Reported self-cleavage at or above 0.2? A24G A43U
Response: Not met

Query: Try the variant G13C U63G
Response: Not met

Query: U33C G51C ?
Response: Not met

Query: And what about the variant G25U A41U ?
Response: Met

Query: Follow-up item: G19A G42U
Response: Met

Query: Same lookup for A11U U52A , please.
Response: Met

Query: // repeat for C10A U20A and report
Response: Met

Query: Field entry: C48A C65G
Response: Not met

Query: Follow-up entry: A26C G40C
Response: Not met

Query: Record: U33A C38U
Response: Not met

Query: Please give the result for C12A A64U too.
Response: Not met

Query: Also G19U C65U , if possible.
Response: Met

Query: Field entry: A28G A59G
Response: Not met

Query: Here is the next variant: G32C A71C
Response: Met

Query: Follow-up entry: U8C U55C
Response: Not met

Query: Then what about the variant G34U A64C ?
Response: Met

Query: Then G19U G32U ?
Response: Not met

Query: Another: U55G U58C
Response: Met

Query: For G32U G56C then?
Response: Not met

Query: Follow-up entry: C10G U52G
Response: Met

Query: Quick one: G25C U52A
Response: Met

Query: Request: C37U C50A
Response: Not met

Query: Try U33C A35U next.
Response: Not met

Query: Record: G17C U70G
Response: Met

Query: Entry A47U U62A please
Response: Not met

Query: Would you mind doing G34C U70C as well?
Response: Met

Query: Please do the same for A35U A64G as well.
Response: Met

Query: Would you mind doing C46G A61U as well?
Response: Not met

Query: Record: G32C A71G
Response: Met

Query: Now this one: G1C C65G
Response: Not met

Query: And the next one, A31C C50G ?
Response: Not met

Query: Next: U53A G56A
Response: Not met

Query: And A39U A61U ?
Response: Not met

Query: Also, U53C G57A please.
Response: Met

Query: Now consider G29C A45G and answer again.
Response: Not met

Query: And what about the variant C10A C66G ?
Response: Not met

Query: Would you kindly repeat that for C37U C50U ?
Response: Met

Query: G40U U53A ?
Response: Not met

Query: What about A11U U60A ?
Response: Met

Query: Repeat with A11U G42A
Response: Not met

Query: Here is the next variant: U2A G42A
Response: Not met

Query: And then C3G C38U , what is it?
Response: Not met

Query: Next entry: U7G G69A
Response: Met

Query: Thanks! And U2G C3U ?
Response: Not met

Query: What do you have for G15U A59G ?
Response: Not met
